# Test system: TNK2
# conditionsUsed: concentration: 1 μM, replicates: in singlicate; n = 1;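 also: KINOMEscan kinase panel screen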
# strict inequality: %Inh < 3% yields y, everything else yields n

1. CC(C)c1nc(-c2cccc(NS(=O)(=O)c3c(F)cccc3F)c2F)c(-c2ccnc(Nc3ccc(N4CCOCC4)nc3)n2)s1 [GSK2008607] :: n

**Q:** # strict comparison: is reported %Inh < 3%? input = COc1ccc(-c2coc3ccc(-c4nnc(SCc5ccc(OC)c(C(F)(F)F)c5)o4)cc23)cc1
**A:** n

**Q:** Decide: %Inh of FC(F)(F)c1ccc(/C=C/c2cncnc2Nc2ccc3[nH]c(Cc4ccccc4)nc3c2)cc1 [GW709199] strictly below 3%?
**A:** y

====

# Tested on: PIKFYVE
# conditionsUsed: concentration: 1 μM, replicates: in singlicate; n = 1
For each entry below, report its %Inh value.

// known answers, use as guide
1. COCCOCCOc1cc2ncc3c4ccc(C#N)cc4[nH]c3c2cc1OC :: 47%
2. COc1cccc(C(=O)Nc2cccc(Oc3ccc4nc(NC(=O)C5CC5)cn4n3)c2)c1 :: 0%
3. Cl.Cl.NCC(NCc1ccc(-c2ccnc3[nH]ccc23)s1)c1ccccc1 (stereo not drawn) :: 3%
4. CCS(=O)(=O)c1ccc(OC)c(Nc2nccc(-c3c(-c4cccc(NC(=O)c5c(F)cccc5F)c4)nn4ncccc34)n2)c1 :: 0%
5. Cc1ccc(F)c(C(=O)Nc2cccc(-c3nn4ccccc4c3-c3ccnc(Nc4cccc(F)c4)n3)c2)c1F :: 0%

Could I get %Inh for every one of these entries?
1. Cn1cc(-c2ccc3c(c2)CCN3C(=O)Cc2cccc(F)c2)c2c(N)ncnc21
2. C[C@@H](Oc1cc(-n2cnc3cc(-c4ccnc(NCCS(C)(=O)=O)c4)ccc32)sc1C(N)=O)c1ccccc1Cl
3. Nc1ncc(-c2ccc3nccc(-c4ccncc4)c3c2)cc1S(=O)(=O)N1CCOCC1
4. COc1cccc(-c2ccc3c(NC(=O)C4CC4)n[nH]c3n2)c1

**A:**
11%
0%
0%
27%

====

# System: JNK1
# Construct: gene MAPK8
# conditionsUsed: concentration: 1 μM, replicates: in singlicate; n = 1
Respond with satisfied for %Inh values of 10% and above, not satisfied for values below.

**Q:** Given the entry O=C(Nc1cccc(-c2nn3ccccc3c2-c2ccnc(Nc3cccc(C(F)(F)F)c3)n2)c1)c1c(F)cccc1F , answer whether its %Inh meets or surpasses 10%.
**A:** not satisfied

**Q:** Is it the case that Nc1ncnc2c1nc(-c1ccccc1)n2-c1ccccc1 has %Inh reaching or exceeding 10%?
**A:** satisfied

**Q:** Would you say Cl.Cl.NCC(NCc1ccc(-c2ccnc3[nH]ccc23)s1)c1ccccc1 (centres unmarked) shows %Inh at minimum 10%?
**A:** satisfied

**Q:** Determine whether measured %Inh meets or exceeds 10% for Cn1cc(-c2ccc3c(c2)CCN3C(=O)Cc2cccc(F)c2)c2c(N)ncnc21
**A:** satisfied

**Q:** Exam item: decide whether the reported %Inh for COc1cc2c(cc1OCCN1CCNCC1)ncc1c3ccc(C#N)cc3[nH]c21 is at least 10%.
**A:** satisfied

====

Exercise: for every item that follows, state its recorded %Inh.
# Test system: PIK4CB
# Construct: gene PI4KB
# conditionsUsed: concentration: 1 μM, replicates: in singlicate; n = 1
Write your answer as a measured quantity: the number, then the unit.

1) Cn1cc(-c2ccc3c(c2)CCN3C(=O)Cc2cccc(F)c2)c2c(N)ncnc21 :: 0%
2) COc1cc(Nc2nccc(-c3c(-c4cccc(NC(=O)c5c(F)cccc5F)c4)nn4ncccc34)n2)cc(OC)c1OC :: 0%
3) c1ccc(Oc2ccc(Nc3ccnc4cc(-c5ccc(CNCCN6CCOCC6)o5)ccc34)cc2)nc1 :: 0%

Please state %Inh for every compound in the list that follows.
1. COCCOCCOc1cc2ncc3c4ccc(C#N)cc4[nH]c3c2cc1OC
2. O=C(Nc1cccc(-c2nn3ccccc3c2-c2ccnc(Nc3cccc(F)c3)n2)c1)c1c(F)ccc(F)c1Cl
3. COc1ccc(Nc2nccc(NCCNC(=O)c3cc4ccccc4s3)n2)cc1
4. O=C(Nc1ccccc1F)NC1CCN(c2ccnc(Nc3ccc(F)cc3)n2)CC1
5. c1ccc(-c2n[nH]cc2Nc2ccnc3ccccc23)nc1

**A:**
1. 0%
2. 24%
3. 0%
4. 0%
5. 95.7%

====

Hi there, I'd appreciate the recorded %Inh for every entry that follows.
# Tested on: RIOK1
# conditionsUsed: concentration: 1 μM, replicates: in singlicate; n = 1
Please provide the amount together with its unit, number first.

1. Fc1ccc(-c2ncn(C3CCNCC3)c2-c2ccnc(Oc3ccc(-c4ccccc4)cc3)n2)cc1 :: 7%
2. CN(C)Cc1ccc(-c2ccc3c(Nc4ccc(Oc5ccccn5)cc4)ccnc3c2)o1 :: 8%
3. CCn1c(-c2nonc2N)nc2c(C#CC(C)(C)O)nc(OC[C@H](N)c3ccccc3)cc21 :: 11%
4. Cl.c1ccc(-c2ccc3c(Nc4ccc5[nH]ccc5c4)ccnc3c2)nc1 :: 4%

Below are 6 compounds. Give each one its %Inh.
1. CN1CCN(Cc2cccc(-c3ccc4c(Nc5ccc(Oc6ccccc6)cc5)ccnc4c3)c2)CC1
2. Nc1ncc(-c2ccc3nccc(-c4ccncc4)c3c2)cc1S(=O)(=O)N1CCOCC1
3. CN(c1ccc(NC(=O)Nc2cc(C(F)(F)F)ccc2F)cc1)c1ccnc(Nc2ccc(S(N)(=O)=O)cc2)n1
4. Cl.c1ccc(-c2ccc3c(Nc4ccc5[nH]ncc5c4)ccnc3c2)nc1
5. CCCCc1nn2ncccc2c1-c1ccnc(Nc2ccc(N3CCN(C)CC3)cc2)n1
6. O=C(Nc1cccc(Oc2ccc3nc(NC(=O)C4CC4)cn3n2)c1)c1ccccc1C(F)(F)F

**A:**
21%
30%
24%
32%
52%
64%

Report %Inh for every entry below.
1. O=C(Nc1cccc(-c2nn3ncccc3c2-c2ccnc(Nc3ccccc3)n2)c1)c1c(F)cccc1F
2. Cc1ccc(C(=O)Nc2ccc(Nc3ccnc4cc(-c5nccs5)ccc34)cc2O)cc1.Cl
3. CN(C)S(=O)(=O)c1cc(-c2ccc3nccc(-c4cccc(S(N)(=O)=O)c4)c3c2)cnc1N
4. O=C(NC1CCN(c2ccnc(Nc3ccc(F)cc3)n2)C1)c1cc2ccccc2s1 (stereo not shown)

**A:**
1. 4%
2. 27%
3. 36%
4. 27%

====

# Test system: TAOK2
# conditionsUsed: concentration: 1 μM, replicates: in singlicate; n = 1
measurementName: %Inh (%)
Numbers only, in %.

1. COC(=O)Nc1nc2ccc(Oc3ccc(NC(=O)Nc4cc(C(F)(F)F)ccc4F)cc3)cc2n1C.Cl [GW692089] :: 0
2. CC(=O)N1CCN(c2ccc(Nc3nccc(-c4sc(C(C)C)nc4-c4cccc(NS(=O)(=O)c5cccc(Cl)c5)c4)n3)cn2)CC1 [GSK1660437] :: 0
3. Cc1ccc(C(=O)N2CC[C@@H](O)C2)cc1-n1c(C)cc(OCc2ccc(F)cc2F)c(Br)c1=O :: 57
4. COc1cc(Nc2nccc(N3CCC(NC(=O)c4cc5ccccc5s4)C3)n2)cc(OC)c1OC (centres unmarked) [GSK1379760] :: 0
5. COc1cc(Nc2ncc3c(C)nc(-c4cc5ccccc5[nH]4)n3n2)cc(OC)c1OC [GW869516] :: 0

Please state %Inh for every compound in the list that follows.
1. Cl.c1ccc(-c2ccc3c(Nc4ccc5[nH]ncc5c4)ccnc3c2)nc1 [GW440137]
2. COc1cccc(NC(=O)NC2CCN(c3ccnc(Nc4cc(OC)c(OC)c(OC)c4)n3)C2)c1 (centres unmarked) [GSK1379763]
3. Nc1ncc(-c2cccnc2)c2scc(-c3ccc4c(c3)CCN4C(=O)Cc3ccccc3)c12 [GSK683281]
4. Cc1cccc(NC(=O)Nc2ccc(Oc3ncnc4ccn(C)c34)cc2)c1
5. COc1cccc(C(=O)Nc2cccc(Oc3ccc4nc(NC(=O)C5CC5)cn4n3)c2)c1
6. CN(C)Cc1ccc(-c2ccc3c(Nc4ccc(Oc5ccccn5)cc4)ccnc3c2)o1 [GW567148]

**A:**
0
0
4
20
58
0

====

# System: PRKD1
# conditionsUsed: concentration: 1 μM, replicates: in singlicate; n = 1
measurementName: %Inh (%)
Answers are plain numbers, in %.

1. CC(C)(C)c1ccc2nccc(Nc3cccc(O)c3)c2c1 [GW856795] :: 9
2. c1ccc(Oc2ccc(Nc3ccnc4cc(-c5ccc(CNCCN6CCOCC6)o5)ccc34)cc2)nc1 [GW567145] :: 0
3. Cl.Cl.NCC(NCc1ccc(-c2ccnc3[nH]ccc23)s1)c1ccccc1 (stereo not drawn) [GSK1321565] :: 0
4. CNC(=O)c1ccccc1Nc1nc(Nc2ccc(N3CCOCC3)cc2)ncc1Cl.Cl [GSK1576028] :: 0
5. Cc1cccc(NC(=O)Nc2ccc(Oc3ncnc4ccn(C)c34)cc2)c1 :: 0

Here are 8 molecules. What values of %Inh were reported for them?
1. O=c1[nH]cc(-c2ccc(N3CCOCC3)cc2)c2sc(-c3cn[nH]c3)cc12 [GSK2276055]
2. Nc1ncc(-c2ccc3nccc(-c4ccncc4)c3c2)cc1S(=O)(=O)N1CCOCC1 [GSK1627798]
3. O=C(Nc1cccc(-c2nn3ccccc3c2-c2ccnc(Nc3cccc(F)c3)n2)c1)c1c(F)ccc(F)c1Cl [GSK357952]
4. COc1ccc(-c2coc3ccc(-c4nnc(SCc5ccc(OC)c(C(F)(F)F)c5)o4)cc23)cc1
5. O=C(Nc1n[nH]c2nc(-c3ccc(O)cc3)ccc12)C1CC1 [SB-710363]
6. Cc1ccc(C(=O)N2CC[C@@H](O)C2)cc1-n1c(C)cc(OCc2ccc(F)cc2F)c(Br)c1=O
7. Cn1cc(-c2ccc3c(c2)CCN3C(=O)Cc2cccc(Cl)c2)c2c(N)ncnc21 [GSK2606590]
8. CC(=O)Nc1nc2cnc(Nc3cc(NC(=O)c4cccc(C5(C#N)CC5)c4Cl)ccc3C)nc2s1

**A:**
[0, 0, 21, 0, 0, 0, 0, 0]

Record %Inh per entry; entries follow.
1. COc1cc(Nc2nccc(N3CCC(NC(=O)c4cc5ccccc5s4)C3)n2)cc(OC)c1OC (stereo not drawn) [GSK1379760]
2. CCn1c(-c2nonc2N)nc2c(C#CC(C)(C)O)nc(OC[C@H](N)c3ccccc3)cc21 [GSK943949]

**A:**
0
7
